- ASSAY TARGET: HiBit-WIZ fusion protein (Homo sapiens, UniProt O95785+Q96SW2)
- Sequence (O95785 whole entry, the tested form may be a part): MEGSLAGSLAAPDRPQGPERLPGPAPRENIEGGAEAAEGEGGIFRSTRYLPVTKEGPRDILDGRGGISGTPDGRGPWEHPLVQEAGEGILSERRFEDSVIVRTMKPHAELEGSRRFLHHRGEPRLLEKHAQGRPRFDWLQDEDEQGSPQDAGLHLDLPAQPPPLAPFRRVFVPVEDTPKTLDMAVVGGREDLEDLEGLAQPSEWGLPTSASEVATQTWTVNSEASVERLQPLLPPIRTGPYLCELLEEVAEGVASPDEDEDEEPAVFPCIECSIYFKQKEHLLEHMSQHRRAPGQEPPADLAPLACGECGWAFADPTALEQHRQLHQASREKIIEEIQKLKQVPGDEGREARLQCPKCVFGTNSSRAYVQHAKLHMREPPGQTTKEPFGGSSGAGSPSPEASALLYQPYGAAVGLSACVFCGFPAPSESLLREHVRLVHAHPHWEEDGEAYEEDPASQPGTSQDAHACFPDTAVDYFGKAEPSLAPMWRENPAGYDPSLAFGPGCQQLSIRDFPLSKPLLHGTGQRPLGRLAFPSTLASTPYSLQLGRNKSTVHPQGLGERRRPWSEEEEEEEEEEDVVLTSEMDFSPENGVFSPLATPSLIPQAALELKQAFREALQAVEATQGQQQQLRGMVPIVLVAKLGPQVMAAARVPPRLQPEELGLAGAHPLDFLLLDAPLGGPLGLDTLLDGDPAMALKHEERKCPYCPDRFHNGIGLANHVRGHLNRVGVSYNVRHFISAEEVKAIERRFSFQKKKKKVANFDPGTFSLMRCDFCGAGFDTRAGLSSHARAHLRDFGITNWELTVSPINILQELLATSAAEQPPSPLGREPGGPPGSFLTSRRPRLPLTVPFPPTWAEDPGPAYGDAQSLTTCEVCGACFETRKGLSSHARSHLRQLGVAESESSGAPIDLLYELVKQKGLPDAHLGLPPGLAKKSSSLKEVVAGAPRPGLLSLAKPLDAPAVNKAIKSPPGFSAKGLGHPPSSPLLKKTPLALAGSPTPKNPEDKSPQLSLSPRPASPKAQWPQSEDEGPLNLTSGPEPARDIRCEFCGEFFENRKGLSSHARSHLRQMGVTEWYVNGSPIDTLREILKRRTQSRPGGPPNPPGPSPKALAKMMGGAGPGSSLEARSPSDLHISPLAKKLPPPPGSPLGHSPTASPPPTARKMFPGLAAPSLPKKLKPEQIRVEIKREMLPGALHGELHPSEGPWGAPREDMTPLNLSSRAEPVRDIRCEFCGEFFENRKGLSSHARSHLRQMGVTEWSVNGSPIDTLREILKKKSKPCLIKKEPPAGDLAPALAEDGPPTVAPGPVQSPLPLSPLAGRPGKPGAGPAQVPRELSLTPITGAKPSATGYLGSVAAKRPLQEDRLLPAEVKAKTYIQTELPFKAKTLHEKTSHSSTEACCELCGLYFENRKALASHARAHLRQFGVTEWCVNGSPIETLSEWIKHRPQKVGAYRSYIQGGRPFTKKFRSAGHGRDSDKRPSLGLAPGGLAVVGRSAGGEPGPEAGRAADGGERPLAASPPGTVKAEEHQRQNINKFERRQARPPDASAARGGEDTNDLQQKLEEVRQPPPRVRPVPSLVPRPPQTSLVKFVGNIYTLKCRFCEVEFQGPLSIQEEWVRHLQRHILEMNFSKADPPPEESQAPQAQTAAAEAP
- Sequence (Q96SW2 whole entry, the tested form may be a part): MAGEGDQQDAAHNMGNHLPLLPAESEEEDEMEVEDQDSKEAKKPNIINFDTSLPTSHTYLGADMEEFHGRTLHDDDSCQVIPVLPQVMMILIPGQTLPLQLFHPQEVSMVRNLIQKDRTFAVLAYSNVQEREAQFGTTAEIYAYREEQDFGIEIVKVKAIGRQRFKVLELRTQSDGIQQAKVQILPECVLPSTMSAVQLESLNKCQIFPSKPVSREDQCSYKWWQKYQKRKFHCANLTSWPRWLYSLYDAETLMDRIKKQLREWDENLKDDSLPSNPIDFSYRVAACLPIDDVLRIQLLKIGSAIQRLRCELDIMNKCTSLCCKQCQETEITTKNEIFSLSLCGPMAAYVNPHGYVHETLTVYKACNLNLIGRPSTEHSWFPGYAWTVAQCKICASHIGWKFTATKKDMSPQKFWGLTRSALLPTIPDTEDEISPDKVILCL
- Sequence (Q16531 whole entry partner, the tested form may be a part): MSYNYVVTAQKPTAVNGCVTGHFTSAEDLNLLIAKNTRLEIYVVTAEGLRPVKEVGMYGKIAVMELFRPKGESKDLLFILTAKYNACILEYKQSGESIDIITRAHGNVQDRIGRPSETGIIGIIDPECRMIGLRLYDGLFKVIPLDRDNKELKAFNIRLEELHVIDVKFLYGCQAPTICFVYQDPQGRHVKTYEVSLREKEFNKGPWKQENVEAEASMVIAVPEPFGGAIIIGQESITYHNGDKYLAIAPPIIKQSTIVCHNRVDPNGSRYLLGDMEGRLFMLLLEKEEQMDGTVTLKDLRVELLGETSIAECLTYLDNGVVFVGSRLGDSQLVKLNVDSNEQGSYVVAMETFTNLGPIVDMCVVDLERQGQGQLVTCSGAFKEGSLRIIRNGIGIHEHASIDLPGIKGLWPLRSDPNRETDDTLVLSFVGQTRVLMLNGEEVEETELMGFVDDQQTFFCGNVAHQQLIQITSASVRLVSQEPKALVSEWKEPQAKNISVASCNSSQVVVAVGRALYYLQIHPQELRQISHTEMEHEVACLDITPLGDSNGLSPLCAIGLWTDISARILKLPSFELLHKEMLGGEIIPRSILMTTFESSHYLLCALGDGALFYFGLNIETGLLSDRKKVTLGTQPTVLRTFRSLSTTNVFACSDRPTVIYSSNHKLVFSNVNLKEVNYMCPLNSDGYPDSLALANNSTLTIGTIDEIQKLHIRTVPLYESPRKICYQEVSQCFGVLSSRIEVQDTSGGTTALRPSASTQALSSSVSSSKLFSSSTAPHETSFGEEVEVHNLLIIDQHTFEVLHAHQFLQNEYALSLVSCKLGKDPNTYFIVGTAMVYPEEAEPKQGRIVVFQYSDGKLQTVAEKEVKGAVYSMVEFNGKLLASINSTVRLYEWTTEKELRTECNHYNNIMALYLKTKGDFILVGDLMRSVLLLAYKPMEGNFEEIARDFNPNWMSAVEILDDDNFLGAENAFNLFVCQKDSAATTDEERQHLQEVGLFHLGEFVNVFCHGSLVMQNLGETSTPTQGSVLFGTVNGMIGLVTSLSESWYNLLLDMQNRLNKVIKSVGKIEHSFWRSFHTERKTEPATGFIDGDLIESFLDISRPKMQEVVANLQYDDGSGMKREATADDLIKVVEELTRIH
- METHOD: Quantification of WIZ protein levels in HiBit tag fusion protein assay (WIZ HiBit assay in 293T cells)
- Format: cell-based
- EXPERIMENTAL PARAMETERS: HEK-293T, DMSO-normalized, curve-fitted percentage of WIZ-HiBit remaining at 25 uM; 293T cells; read-out: WIZ Amax
PROPERTY MEASURED: remaining activity at up to 25 µM (%)

O=C1CCC(N2Cc3cc(OC[C@@H]4CCCCN4C(=O)CCCn4cnnc4)ccc3C2=O)C(=O)N1 (some centres unmarked) [Compound I-72fv] | 98.9
Cc1cc(-c2onc(C)c2C(=O)N2CCCC[C@H]2COc2ccc3c(c2)CN(C2CCC(=O)NC2=O)C3=O)no1 (some centres unmarked) [Compound I-72ep] | 22.2
O=C1CCC(N2Cc3cc(OC[C@H]4CCCCN4CC45CC(F)(C4)C5)ccc3C2=O)C(=O)N1 (some centres unmarked) [Compound I-100] | 17.8
COc1ccc(CN2CCCC[C@H]2COc2ccc3c(c2)CN(C2CCC(=O)NC2=O)C3=O)cc1F (some centres unmarked) [Compound I-50a] | 47.8
O=C1CCC(N2Cc3cc(OC[C@H]4CCCCN4Cc4c(F)cccc4F)ccc3C2=O)C(=O)N1 (some centres unmarked) [Compound I-147] | 28.4
O=C1CCC(N2Cc3cc(OC[C@@H]4CCCCN4Cc4ncccc4O)ccc3C2=O)C(=O)N1 (some centres unmarked) [Compound I-50dg] | 83.9
Cc1nnc(-c2ccc(C(=O)N3CCCC[C@H]3COc3ccc4c(c3)CN(C3CCC(=O)NC3=O)C4=O)cc2)o1 (some centres unmarked) [Compound I-72gy] | 55.9
CCc1ocnc1C(=O)N1CCCC[C@H]1COc1ccc2c(c1)CN(C1CCC(=O)NC1=O)C2=O (some centres unmarked) [Compound I-72ah] | 77.1
CCn1cc(C(=O)N2CCCC[C@H]2COc2ccc3c(c2)CN(C2CCC(=O)NC2=O)C3=O)c(C)n1 (some centres unmarked) [Compound I-72gw] | 80.9
O=C1CCC(N2Cc3cc(OC[C@@H]4CCCCN4C(=O)[C@H]4CCN(Cc5ccccc5)C4)ccc3C2=O)C(=O)N1 (some centres unmarked) [Compound I-72cy] | 84.8

[P] CC(C)N1CCC(CN2CCCC[C@@H]2COc2ccc3c(c2)CN(C2CCC(=O)NC2=O)C3=O)CC1 (some centres unmarked) [Compound I-50ea]
[Q] CC(C)(C)Cc1cc(C(=O)N2CCCC[C@H]2COc2ccc3c(c2)CN(C2CCC(=O)NC2=O)C3=O)no1 (some centres unmarked) [Compound I-72bz]
IN: Short answer wanted: higher remaining activity at up to 25 µM, P or Q ? Which one? Tell me its label.
OUT: Q

[P] O=C1CCC(N2Cc3cc(OC[C@H]4CCCCN4CC4CCN(C(=O)OCc5ccccc5)CC4)ccc3C2=O)C(=O)N1 (some centres unmarked) [Compound I-50cl]
[Q] Cc1n[nH]c(CC(=O)N2CCCC[C@H]2COc2ccc3c(c2)CN(C2CCC(=O)NC2=O)C3=O)n1 (some centres unmarked) [Compound I-72cg]
IN: Exercise: compare P and Q ; which one has the greater remaining activity at up to 25 µM? # answer = label of selected item
OUT: Q
